assay_summary: soluble fraction after stress (log2 fold change); higher = more stays soluble; pooled small domains, quantitative proteomics;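 also: 20 min heating vs room temperature control held 20 min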
conditions: stress: 75 degC
observed_property: soluble fraction (log2)

> print(dat)
                            residue.sequence        observed.property    number
 1  HMAEPYDERKVMEQMIPKGKNTIVAHLGHLKDHGETGYLQEALSYLRERESELGFDLKEVRALVHN  soluble fraction (log2)     0.365
 2  HMDTDWDVSGVTPDQYRLLFSVLGGLAGVKDVGLNPDGLRIIHTPEALPSIEKAFQANGLKLKRNVD  soluble fraction (log2)   -0.0943
 3  HMSAVIGTATVTTSSGSLNLRESASLYSRVIRTIPRGATVDVLSRDTSWSRVRYAGSEGYVLNQYLTFQT  soluble fraction (log2)      -2.1
 4  HMKNKVTVPKVEGMDKEEAIQALNEVGLGYKAVMQSSDSVAEGKVISQGTAAGKKVDKNTQIIITVSGG  soluble fraction (log2)     0.237
 5  HMNVDLLEARIPIQSHGMRLDQVVAELFPDYSRNRLAAWIKEGRLTVDGKTMKPRDRALASAHVVLEVV  soluble fraction (log2)      -0.3
 6  HMLANLNKELQNDAALLKQKAQGNSNLLAKIQDVEQQMKQVNTSSASDEAKAKELQTLQRKLTAYKKALA  soluble fraction (log2)   -0.0577
 7  HMKISIDNPSVLLDKLATLFPDTSKNKLRKMLTEGRIYVNDNIEHRAKRELINGDTVKILDKTTSKE  soluble fraction (log2)    -0.121
 8  HMLDGFEVGMTVMKKSGTEIGFTGWPSFADKDELPIIERIDTSDSTLLLKFKDMSWWIKASLVEPS  soluble fraction (log2)     -3.55
 9  HMSADEVSQQLTSEQTKSKSYQALLQAYAAYQQKSFDDAALELQNVQQDVLSDSQKTIYNTISQAVNS  soluble fraction (log2)      0.26
10  HMTSLSYINDLVTGATAQGLYRIVVPNQFMDDNMANVLRRTYGYQVQSRTSLMGTFDDYIISWAPPM  soluble fraction (log2)      -2.9
11  HMKEIKRLVELSPGRYFIEGATNIRVFGINGSLLLDTKGETVDLSDLAKGVYLLKTDGVTYKVL  soluble fraction (log2)    -0.506
12  HMEETLEELGKEYESAFTMYEKLWSYYKKQNYHQVNHKRSERYEILLGFVREYHPEKVEYYRELL  soluble fraction (log2)     0.378
13  HMDVSVPDVTGTRLDRAQSLLEAQGLTLGKVEEFFHATEPAGIVYDQEPRPGTRVDEGTAISVSVSKGPEA  soluble fraction (log2)     0.323
14  HMNSLKNKNNLIALVGASNDKNKYGNKILLDLVSKGHNVVPINPKEDTVAGLKSYNNVSELSEKPSI  soluble fraction (log2)    -0.523
15  HMLKIVRSREEVESRLYTIYGNVKGRRLYNFYLSLIIDGLDIVKARTSKNVYYTNIRNLKNAGIDFSQKIN  soluble fraction (log2)     -2.28
16  HMSESEDFQNRWRPWRSLLDDETPVVREALVDQLKLFPEEGRLFLQQMSEEDDPISARHAFELIKSLGW  soluble fraction (log2)    -0.363
17  HMNAAFMKAERLLAILNILLTGKRVSSTELAKKLEVSVRTVYRDVEALSEAGFPVYATMGRDGGFGLIEGF  soluble fraction (log2)     -2.09
18  HMDSTTHALALVRTLPRDQAEAVLLRVVADLDYADVAEIMGRSPGAVRVLVHRGLRRLEQELATRRT  soluble fraction (log2)    -0.574
19  HMYIDNVTIYDVGFNERIVHALERAGVKNLYDLSQMNFYQLQRIRNLGASSLEKVINRIHSYGILLKNES  soluble fraction (log2)    -0.902
20  HMRRGFGYVRKLPSGRWQASFVGPDLARHSAPHTFETKGDAEGWLGRRQADVVAGEWRPPVP  soluble fraction (log2)  -0.00612
21  HMRPLTPLEKLTPDADGKYYHIVQSGETLSWIAKLYETTAEKLQAWNNLFSSDIFPNQKLLLQVTPP  soluble fraction (log2)     0.134
22  HMELLSGTVEKVLTSGVLVKLPGGAIGFIPNSEMGTPRGTNHGKMFPAGTPLQVMVVEVNQDRGRITLSR  soluble fraction (log2)     -1.69
23  HMPEDQISYTDLIKQINDGNVEKIKMTVGSTTIKVNLKEQEEPKTAIVPSTQAFIELVQEKVQDGNEITLI  soluble fraction (log2)     0.164
24  HMSEGEMSQWIIAQAKQQGGGFQPDAARLLGSYVGNNTLRARQEIDKLLTYVGPSRVVTPEDVVLLTA  soluble fraction (log2)     -0.23
25  HMFSVVDKITLQEELKKLSKKEQLLIQLRYYDELNQEEIAKIFHVSQVQISRMEKKIIEKLKKQF  soluble fraction (log2)     -3.44
26  HMKQQNFADLAGRFVFNADNEVVFNFGKHKNVPVATVLKNEPGYYGWMMGGDFPLFTKKILKQIKEA  soluble fraction (log2)     -1.05
27  HMGAKLTTAQGGTLKVLVKGKKTHTPTIELRDKDPDFPNAKVVQPDINKGNKQIAHGINGVL  soluble fraction (log2)     0.686
28  HMTTMYKSDVKGINYDVKAKSWFLRITFNGNQIPIGHFKTEEDAINVKQQLIPYIESKDYTSILAVKAKYS  soluble fraction (log2)      -1.9
29  HMNPNEVQIPDLVNKTEEEAEQILKDLKLKLVVKSEEYDENIEKGKIISQDPTYKENYKIKEHSEISVIIS  soluble fraction (log2)     0.586
30  HMQQISDPQVLRPMAEEVLHQSQKVVQDYKGGNKNAFHALVGQMMKKTQGKGNPQVIGQVLSELLDE  soluble fraction (log2)      0.98
31  HMELPMGTQLPPERELAQQMQVSRAVVNGGLAELAQQGFLEVRPRQGTFVADYRRKGNLSTLIAIMEY  soluble fraction (log2)     0.257
32  HMSPIKAGDLVKITGTKYYRGQTIPSWVKAKNWFVHSVSGDRAVINKSEDGKNAIMSPVKVSNLALVT  soluble fraction (log2)    0.0902
33  HMAVDAASSTIGKNVEVSVANEKGDYENFNGKVKSASIKDGVVYLELELKDTGEIKEVPYSSLTKIT  soluble fraction (log2)    0.0437
